Assay Target: active phosphorylated p38α MAPK (Homo sapiens (Human))
Test Details: Fluorescence polarisation (FP) binding assay, active enzyme
Condition Context: Table 5; read-out: Ki ± SEM (μM) to active p38α MAPK
Measured Attribute: Ki (µM)

- Molecule: "CC(=O)c1cc(-c2ccncc2)c(-c2ccc(F)cc2)s1 [Compound 5.15]"
  Ki [µM]: 1.4
- Molecule: "Nc1nc(N)c(F)c(-c2cc(-c3ccncc3)c(-c3ccc(F)cc3)s2)c1F [Compound 5.21]"
  Ki [µM]: 0.16
- Molecule: "O=C(c1ccccc1)c1cc(-c2ccncc2)c(-c2ccc(F)cc2)s1 [Compound 5.16]"
  Ki [µM]: 2.8
- Molecule: "OCCCCc1cc(-c2ccncc2)c(-c2ccc(F)cc2)s1 [Compound 5.9]"
  Ki [µM]: 0.25
- Molecule: "O=C(CCCO)c1cc(-c2ccncc2)c(-c2ccc(F)cc2)s1 [Compound 5.10]"
  Ki [µM]: 0.67
- Molecule: "CCOC(=O)c1cc(-c2ccncc2)c(-c2ccc(F)cc2)s1 [Compound 5.11]"
  Ki [µM]: 2.2
- Molecule: "Fc1ccc(-c2sc(-c3c(F)c(F)nc(F)c3F)cc2-c2ccncc2)cc1 [Compound 5.19]"
  Ki [µM]: 0.8

[I] Fc1ccc(-c2sccc2-c2ccncc2)cc1 [Compound 3.2]
[II] Fc1ccc(-c2sc(-c3ccco3)cc2-c2ccncc2)cc1 [Compound 5.18]
Problem: Between these two entries, I and II , state which has the higher Ki. Record your answer as the label of the chosen record.
Result: II

====

Assay Target: active phosphorylated p38α MAPK (Homo sapiens (Human), UniProt Q16539)
Sequence (Q16539 whole entry): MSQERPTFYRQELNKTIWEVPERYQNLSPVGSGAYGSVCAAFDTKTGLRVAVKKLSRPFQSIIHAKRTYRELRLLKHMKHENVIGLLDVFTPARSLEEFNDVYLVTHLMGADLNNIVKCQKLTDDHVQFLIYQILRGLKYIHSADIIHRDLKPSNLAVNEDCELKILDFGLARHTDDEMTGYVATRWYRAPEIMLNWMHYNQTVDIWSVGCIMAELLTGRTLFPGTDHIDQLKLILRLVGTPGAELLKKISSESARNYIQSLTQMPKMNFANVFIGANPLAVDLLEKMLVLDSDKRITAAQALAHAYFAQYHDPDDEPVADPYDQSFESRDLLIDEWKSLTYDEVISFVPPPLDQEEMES
Test Details: Fluorescence polarisation (FP) binding assay, active enzyme
Condition Context: Table 6; read-out: Ki ± SEM (μM) to active p38α
Measured Attribute: Ki (µM)

Illustrative cases are given below, each with its answer.
- Molecule: "N#Cc1cccc(-c2c(C#CCCO)sc(-c3ccc(F)cc3)c2-c2ccncc2)c1 [Compound 3.47]"
  Ki / µM: 1.8
- Molecule: "O=C(O)c1cccc(-c2c(C#CCCO)sc(-c3ccc(F)cc3)c2-c2ccncc2)c1 [Compound 3.31]"
  Ki / µM: 7.1
- Molecule: "OC(CCc1ccccc1)c1csc(-c2ccc(F)cc2)c1-c1ccncc1 (stereo not drawn) [Compound 4.17]"
  Ki / µM: 0.99
- Molecule: "COC(=O)c1ccccc1-c1c(C#CCCO)sc(-c2ccc(F)cc2)c1-c1ccncc1 [Compound 3.28]"
  Ki / µM: 8.7
- Molecule: "CC(=O)c1ccc(-c2c(C#CCCO)sc(-c3ccc(F)cc3)c2-c2ccncc2)cc1 [Compound 3.53]"
  Ki / µM: 2.2

[a] Fc1ccc(-c2sc(C#CCCN3CCOCC3)cc2-c2ccncc2)cc1 [Compound 5.8]
[b] OCCCCc1cc(-c2ccncc2)c(-c2ccc(F)cc2)s1 [Compound 5.9]
[c] Fc1ccc(-c2scc(C#CCc3ccccc3)c2-c2ccncc2)cc1 [Compound 4.19]
[d] OCCC#Cc1sc(-c2ccc(F)cc2)c(-c2ccncc2)c1CCCc1ccccc1 [Compound 4.1]
Problem: Order the 4 molecules from highest to lowest Ki. Output the labels ranked as instructed.
Result: c, a, d, b

====

Test Details: In vitro metabolic stability, rat liver microsomes
Format: in vitro ADME
Condition Context: read-out: In vitro CLint (μL/min/mg protein)
Measured Attribute: microsomal CLint (µL/min/mg)
Number only, in µL/min/mg; omit the unit.

Problem: # microsomal CLint lookup, item "OCCC#Cc1cc(-c2ccncc2)c(-c2ccc(F)cc2)s1"
Result: 110
